pIC50: −log10 of the molar value.
Several reports have described pIC50 for UniProt:Q99685; a selection of those results is presented here.
quantity: pIC50

Answered examples (6):
Problem: So what does the record say about pIC50 for `O=C(c1ccc(-c2noc(C34CC(C3)C4)n2)cc1)N1CCN(c2nc3nc(Cl)ccc3o2)CC1` ?
Solution: 8.05

Problem: So what does the record say about pIC50 for `O=C1CN(c2cccc(C(=O)N3CCN4C[C@@](O)(c5ccc(Cl)cc5)CC[C@@H]4C3)c2Cl)CCN1` ?
Solution: 7.07

Problem: So what does the record say about pIC50 for `O=C(c1cscn1)N1CCN(C2CN(C(=O)c3sc4cc(Br)ccc4c3Cl)C2)CC1` ?
Solution: 7.79

Problem: So what does the record say about pIC50 for `CC(C)(C)OC(=O)NCCOc1ccc(C(=C2CCN(C(=O)N3CC[C@@H]4OCC(=O)N[C@@H]4C3)CC2)c2ccccc2)cc1` ?
Solution: 7.89

Problem: So what does the record say about pIC50 for `O=C1N[C@H](CCC(=O)N2CC(c3ccc(N4CC5(CCCO5)C4)nc3)C2)CO1` ?
Solution: 6.08

Problem: So what does the record say about pIC50 for `Cn1cc(-c2ccc(C(F)(F)F)cc2)c2ccc(C(=O)N3CC(N[C@H]4CCN(C(=O)c5cscn5)C4)C3)cc21` ?
Solution: 7.35

I: O=C1N[C@H](CCC(=O)N2CC3(CC(Cc4ccc(F)cc4F)C3)C2)CO1
II: N#Cc1ccccc1Oc1ccc(C2CN(C(=O)N3CC[C@@H]4OCC(=O)N[C@@H]4C3)C2)cc1
Problem: // task: argmin of pIC50 over [ I , II ] Answer by stating the label of the chosen item.
Solution: I
(I: 9.30, II: 9.70)

1: O=C(c1ccccc1)N1CC[C@H](NC2CN(C(=O)c3sc4cc(-c5ccc(C(F)(F)F)cc5)ccc4c3F)C2)C1
2: O=C(c1cc2cc(Cl)ccc2o1)N1CCN(C2CN(C(=O)c3nccs3)C2)CC1
3: O=C(c1ccc2nn(Cc3cccc(C(F)(F)F)c3)cc2c1)N1CC(N2CCN(C(=O)c3nccs3)CC2)C1
Problem: Ascending by pIC50, please. Rank the items, then write their labels in that order.
Solution: 2, 1, 3
(2: 5.92, 1: 7.92, 3: 8.30)

---

Several reports have described IC50 for MAGL (Homo sapiens, UniProt Q99685); a selection of those results is presented here.
quantity: IC50 (µM)

Answered examples (5):
Problem: So what does the record say about IC50 for O=C(CCOCCNc1ccc([N+](=O)[O-])c2nonc12)NCCOc1cccc(C(c2ccccc2)C2CCN(C(=O)N3CCC4OCC(=O)NC4C3)CC2)c1 (single isomer, unassigned) ?
Solution: 0.0072

Problem: So what does the record say about IC50 for `O=C(c1nccs1)N1CCN(C2CN(C(=O)c3ccc4c(ccn4-c4ccc(F)cc4)c3Cl)C2)CC1` ?
Solution: 0.011

Problem: So what does the record say about IC50 for `COc1cccc(C(=O)N2CCN3C[C@@](O)(c4cc(Br)no4)OC[C@@H]3C2)c1Cl` ?
Solution: 0.849

Problem: So what does the record say about IC50 for `CC(C)(C)CS(=O)(=O)N1CC2(CN(C(=O)CC[C@@H]3COC(=O)N3)C2)C1` ?
Solution: 3.37

Problem: So what does the record say about IC50 for `Cc1c(C(=O)N2CC(C3CCN(C(=O)c4cscn4)CC3)C2)sc2cc(C(F)(F)F)ccc12` ?
Solution: 0.005

a: O=C(c1ccc2c(-c3cccc(C(F)(F)F)c3)c[nH]c2c1)N1CC(N[C@H]2CCN(C(=O)c3ccccc3)C2)C1
b: O=C1N[C@H](CCC(=O)N2CC(c3ccc([C@H]4C[C@@H](C(F)(F)F)C4)nc3)C2)CO1
c: O=C(c1nccs1)N1CC[C@H](NC2CN(C(=O)c3cn(-c4cccc(F)c4)c4ccccc34)C2)C1
Problem: Ascending by IC50, please. Rank the items, then write their labels in that order.
Solution: a, b, c

a: O=C(c1ccc2c(c1)[nH]c(=O)n2-c1ccc(C(F)(F)F)cc1)N1CC(C2CCN(C(=O)c3nccs3)CC2)C1
b: CC(OC1CN(C(=O)N2CC[C@@H]3OCC(=O)N[C@@H]3C2)C1)c1ccc(F)cc1Cl (single isomer, unassigned)
c: Cc1cc2c(ccn2-c2ccc(F)cc2)cc1C(=O)N1CC(N[C@H]2CCN(C(=O)c3nccs3)C2)C1
d: O=C(c1ccc2c(ccn2-c2ccc(C(F)(F)F)cc2)c1)N1CC(N2CCN(c3ncccn3)C(=O)C2)C1
e: O=C1CO[C@H]2CCN(C(=O)N3C[C@H]4C[C@@H]3[C@H](OCc3ccc(C(F)(F)F)cc3F)C4)C[C@H]2N1 (relative stereo)
Problem: Ascending by IC50, please. Rank the items, then write their labels in that order.
Solution: d, a, b, c, e

I: CC1CN(c2cc(OC3CN(C(=O)N4CC[C@@H]5OCC(=O)N[C@@H]5C4)C3)ccc2C(F)(F)F)C1
II: COc1cc(C(=O)N2CC(N3CCN(C(=O)c4cscn4)CC3)C2)ccc1-c1cccc(C(F)(F)F)c1
Problem: Exercise: compare I and II ; which one has the greater IC50? Answer by stating the label of the chosen item.
Solution: I
